Tested on: 143B cells
PROCEDURE_TEXT: CCK-8 anti-proliferative assay, 143B
Type: cell-based, human
CONDITION_INFO: Homo sapiens, 143B; Table 7; co-incubated 48 h; read-out: Anti-proliferative activity (IC50 ± standard deviation) 143B
Counter-ions that a name gives are not always drawn.
IC50 strictly less than 6 µM = rule met. Otherwise rule not met.

Example entries begin here.
COc1cc2ncnc(NCc3cccc(NC(=O)Nc4cc(C(F)(F)F)cc(C(F)(F)F)c4)c3)c2cc1OCCCCCCN1CCN(CCN2CCOCC2)CC1 | rule met
COc1cc2ncnc(NCc3cccc(NC(=O)Nc4ccc(C(C)(C)C)cc4)c3)c2cc1OCCCCCCN1CCN(CCN2CCOCC2)CC1 | rule met
COc1cc2ncnc(NCc3cccc(NC(=O)Nc4ccc(F)cc4)c3)c2cc1OCCCCCCN1CCN(CCN2CCOCC2)CC1 | rule not met
N#CC1(c2ccc(NC(=O)c3cccnc3NCc3ccncc3)cc2)CCCC1 [Apat, apatinib mesylate, reference compound] | rule not met

Then this compound:
Incoming: Would you kindly verify if IC50 of CNC(=O)c1cc(Oc2ccc(NC(=O)Nc3ccc(Cl)c(C(F)(F)F)c3)cc2)ccn1 [Sora, sorafenib, reference compound] is strictly less than 6 µM?
Outgoing: rule not met
